# target or system: full-length RORγt in Jurkat cells (Homo sapiens, UniProt P51449)
# Construct: transcriptional activity of the full-length RORγt in Jurkat cells; host or cells: Jurkat cells (ATCC TIB-152)
# Sequence (P51449 1-497 isoform P51449-2): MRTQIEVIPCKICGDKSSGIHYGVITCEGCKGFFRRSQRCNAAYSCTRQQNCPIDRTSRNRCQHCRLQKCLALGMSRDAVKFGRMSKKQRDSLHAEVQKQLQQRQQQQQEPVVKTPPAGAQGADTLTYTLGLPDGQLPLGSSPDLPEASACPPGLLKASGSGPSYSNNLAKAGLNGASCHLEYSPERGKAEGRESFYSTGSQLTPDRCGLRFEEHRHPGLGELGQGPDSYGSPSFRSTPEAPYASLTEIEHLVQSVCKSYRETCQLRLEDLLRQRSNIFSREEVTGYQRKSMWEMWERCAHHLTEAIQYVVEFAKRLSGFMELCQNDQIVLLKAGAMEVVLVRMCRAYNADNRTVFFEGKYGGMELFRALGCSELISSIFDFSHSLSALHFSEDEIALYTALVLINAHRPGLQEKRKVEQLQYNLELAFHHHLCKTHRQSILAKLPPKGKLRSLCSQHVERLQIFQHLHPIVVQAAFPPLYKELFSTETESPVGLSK
# protocol text: RORγt 5×RORE Assay in Jurkat Cells (Assay 2)
# Type: cell-based
# condition info: 5×RORE luciferase reporter, Table 20, read-out: Avg ROR γt/5x IC5
Give measured IC50 for each item. Keep answers brief.

In [3]: df
Out[3]:
                                   molecule  reported_property     assay_value
0  CC[C@@H]1CN(c2ncc(C(F)(F)F)cn2)Cc2cc(C(=O)NCc3ccc(S(=O)(=O)CC)cc3)ccc21 (single isomer, unassigned)               IC50        < 100 nM
1  CCS(=O)(=O)c1ccc(CNC(=O)c2ccc3c(c2)CN(c2ncc(C(F)(F)F)cn2)C[C@H]3C(C)C)cc1 (single isomer, unassigned)               IC50  100 to 1000 nM
2  CC[C@H]1CN(c2ncc(C3CC3)cn2)Cc2cc(C(=O)N[C@@H](CO)c3ccc(S(=O)(=O)CC)cc3)ccc21 (single isomer, unassigned)               IC50       > 1000 nM
3  CC[C@@H]1CN(c2ncc(-c3ncco3)cn2)Cc2cc(C(=O)N[C@@H](CO)c3ccc(S(=O)(=O)CC)cc3)ccc21 (single isomer, unassigned)               IC50        < 100 nM
4  CCOC(=O)c1cnc(N2Cc3cc(C(=O)NCc4ccc(S(=O)(=O)CC)cc4)ccc3[C@H](C(C)C)C2)nc1 (single isomer, unassigned)               IC50        < 100 nM

Attention now shifts to the item below.
Query :: Form field: reported IC50 of CC[C@H]1CN(c2ncc(C(F)(F)F)cc2C)Cc2cc(C(=O)N[C@@H](CO)c3ccc(S(=O)(=O)CC)cc3)ccc21 (single isomer, unassigned)
Result :: 100 to 1000 nM

###

# target or system: full-length RORγt in Jurkat cells (Homo sapiens)
# Construct: transcriptional activity of the full-length RORγt in Jurkat cells; host or cells: Jurkat cells (ATCC TIB-152)
# protocol text: RORγt 5×RORE Assay in Jurkat Cells (Assay 2)
# Format: cell-based
# condition info: 5×RORE luciferase reporter, Table 20, read-out: Avg ROR γt/5x IC5
# Experimental: [formula] RORγt 5×RORE Assay in Jurkat Cells (Assay 2) Compounds described herein were tested for RORγ inverse agonist activity in a cell-based, transcriptional activity assay. Secreted Nanoluc″ luciferase was used as a reporter for transcriptional activity of the full-length RORγt in Jurkat cells (ATCC, Cat. #TIB-152). […] Luciferase activity in the conditioned supernatants was determined with NanoGlo® assay reagents (Promega, Cat. #N1130).
pIC50: −log10 of the molar value.
reported property: pIC50

For orientation, consider the following solved cases.
In [3]: df
Out[3]:
                                   compound  assay_value
0  CCS(=O)(=O)c1ccc(CNC(=O)c2ccc3c(c2)CN(c2ncc(C4CC4)cn2)C[C@@H]3C(C)C)cc1 (single isomer, unassigned)       < 6.00
1  CCS(=O)(=O)c1ccc(CNC(=O)c2ccc3c(c2)CN(Cc2ccc(F)cc2)C[C@H]3C(C)C)cc1 (single isomer, unassigned)       < 6.00

Query :: Reported pIC50 for CCS(=O)(=O)c1ccc(CNC(=O)c2ccc3c(c2)CN(Cc2ccc(Cl)cc2)C[C@H]3C(C)C)cc1 (single isomer, unassigned) : what is it?
Result :: < 6.00

###

# target or system: recombinant RORγ Ligand Binding Domain (LBD) protein (Homo sapiens, UniProt P51449)
# Construct: 6×His; GST
# Sequence (P51449 269-508 limits assumed): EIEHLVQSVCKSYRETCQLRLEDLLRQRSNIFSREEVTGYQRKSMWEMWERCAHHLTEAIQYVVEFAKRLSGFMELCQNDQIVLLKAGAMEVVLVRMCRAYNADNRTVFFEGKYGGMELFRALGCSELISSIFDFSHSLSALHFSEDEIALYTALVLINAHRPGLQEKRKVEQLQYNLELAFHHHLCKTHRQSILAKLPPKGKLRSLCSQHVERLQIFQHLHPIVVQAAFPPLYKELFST
# protocol text: Radio-Ligand RORγ Binding Assay (Assay 1)
# condition info: competition with 25-hydroxy [26,27-3H]-cholesterol, SPA; class symbols; read-out: Avg ROR Bind Ki
pKi: −log10 of the molar value.
reported property: pKi

>>> df
                                        mol                          target_or_system   assay_value
0  CCS(=O)(=O)c1ccc([C@H](CO)NC(=O)c2ccc3c(OC[C@H]4CC[C@H](C(F)(F)F)CC4)ncnc3c2)cc1  recombinant RORγ Ligand Binding Domain (LBD) protein (Homo sapiens, UniProt P51449)  6.00 to 7.00

Continue with the next compound.
Query :: Quick one: pKi for CCS(=O)(=O)c1ccc(CNC(=O)c2ccc3c(OC[C@H]4CC[C@H](C(F)(F)F)CC4)ncnc3c2)cc1 ?
Result :: 6.00 to 7.00

###

Please go through the items and note down their pKi.
# target or system: recombinant RORγ Ligand Binding Domain (LBD) protein (Homo sapiens)
# Construct: 6×His; GST
# protocol text: Radio-Ligand RORγ Binding Assay (Assay 1)
# condition info: radio-ligand competition, 25-hydroxy [26,27-3H]-cholesterol, RORγ LBD; read-out: Avg ROR Bind Ki
pKi: −log10 of the molar value.

Look over these answered cases.
In [3]: df
Out[3]:
                                   molecule                          target_or_system   assay_value
0  CCOC(=O)c1cnc(N2Cc3cc(C(=O)N[C@@H](CO)c4ccc(S(=O)(=O)CC)cc4)ccc3[C@H](CC)C2)nc1 (single isomer, unassigned)  recombinant RORγ Ligand Binding Domain (LBD) protein (Homo sapiens)        > 7.00
1  CCS(=O)(=O)c1ccc(CNC(=O)c2ccc3c(OCc4ccc(C(F)(F)F)cc4)cc(C)nc3c2)cc1  recombinant RORγ Ligand Binding Domain (LBD) protein (Homo sapiens)  6.00 to 7.00
2  CCS(=O)(=O)c1ccc([C@H](CO)NC(=O)c2ccc3c(C4CC4)n(Cc4ccc(C(F)(F)F)cc4)nc3c2)cc1  recombinant RORγ Ligand Binding Domain (LBD) protein (Homo sapiens)        > 7.00
3  CC[C@@H]1CN(c2ncc(Cl)cn2)Cc2cc(C(=O)N[C@@H](CO)c3ccc(S(=O)(=O)CC)cc3)ccc21 (single isomer, unassigned)  recombinant RORγ Ligand Binding Domain (LBD) protein (Homo sapiens)        > 7.00
4  CCS(=O)(=O)c1ccc([C@H](CO)NC(=O)c2ccc3c(OC[C@H]4CC[C@H](C(F)(F)F)CC4)nccc3c2)cc1  recombinant RORγ Ligand Binding Domain (LBD) protein (Homo sapiens)        > 7.00

Query :: Would you kindly share the measured pKi for CCS(=O)(=O)c1ccc([C@H](CO)NC(=O)c2cnc3c(C4CC4)n(C[C@H]4CC[C@H](C(F)(F)F)CC4)nc3c2)nc1 ?
Result :: > 7.00

###

# target or system: full-length RORγt in Jurkat cells (Homo sapiens)
# Construct: transcriptional activity of the full-length RORγt in Jurkat cells; host or cells: Jurkat cells (ATCC TIB-152)
# protocol text: RORγt 5×RORE Assay in Jurkat Cells (Assay 2)
# Type: cell-based
# condition info: 5×RORE luciferase reporter, read-out: Avg ROR γt/5x IC50
pIC50: −log10 of the molar value.
reported property: pIC50

Previously resolved entries follow.
In [3]: df
Out[3]:
                                   compound                          target_or_system  reported_property   assay_value
0  CCS(=O)(=O)c1ccc(CNC(=O)c2ccc3c(OC[C@H]4CC[C@H](C(F)(F)F)CC4)nc(C)cc3c2)cc1  full-length RORγt in Jurkat cells (Homo sapiens)              pIC50        > 7.00
1  CCS(=O)(=O)c1ccc([C@H](CO)NC(=O)c2ccc3c(OCC4CC(F)(F)C4)nc(C)cc3c2)cc1  full-length RORγt in Jurkat cells (Homo sapiens)              pIC50        < 6.00
2  CCS(=O)(=O)c1ccc(CNC(=O)c2ccc3c(c2)CCN(c2nccc(C(F)(F)F)n2)C3C(C)C)cc1 (stereo not shown)  full-length RORγt in Jurkat cells (Homo sapiens)              pIC50        < 6.00
3  CCS(=O)(=O)c1ccc(CNC(=O)c2ccc3c(c2)C(C)(C)CN(Cc2ccc(C#N)cc2)C3C(C)C)cc1 (single isomer, unassigned) [Hy2A-23.2]  full-length RORγt in Jurkat cells (Homo sapiens)              pIC50  6.00 to 7.00
4  CCS(=O)(=O)c1ccc(CNC(=O)c2ccc3c(c2)CCN(Cc2ccc(Cl)cc2)C3C(C)C)cc1 (racemic)  full-length RORγt in Jurkat cells (Homo sapiens)              pIC50        > 7.00
5  CCS(=O)(=O)c1ccc([C@H](CO)NC(=O)c2cnc3c(C4CC4)n(C[C@H]4CC[C@H](C(F)(F)F)CC4)nc3c2)cc1  full-length RORγt in Jurkat cells (Homo sapiens)              pIC50        > 7.00

Please give pIC50 for each item listed below.
1. CCS(=O)(=O)c1ccc(CNC(=O)c2cn(C)c3c(OCc4ccc(C(F)(F)F)cc4)nccc23)cc1
2. CCc1c2ccc(C(=O)N[C@@H](CO)c3ccc(S(=O)(=O)CC)cc3)cc2nn1C[C@H]1CC[C@H](C(F)(F)F)CC1
3. CCc1cc2cc(C(=O)NCc3ccc(S(=O)(=O)CC)cc3)ccc2c(OC[C@H]2CC[C@H](C(F)(F)F)CC2)n1
4. CCS(=O)(=O)c1ccc([C@H](CO)NC(=O)c2ccc3c(OCc4ccc(C(F)(F)F)cc4)nccc3c2)cc1
5. CCS(=O)(=O)c1ccc([C@H](CO)NC(=O)c2ccc3c(OCc4ccc(C(F)(F)F)cc4)cc(C)nc3c2)cc1
6. CCS(=O)(=O)c1ccc(CNC(=O)c2ccc3c(c2)CCN(Cc2ccc(C#N)nc2)[C@H]3C(C)C)cc1 (single isomer, unassigned)
7. CCC1c2ccc(C(=O)NC(CO)c3ccc(S(=O)(=O)CC)cc3)cc2CCN1CC1CCC(C(F)(F)F)CC1 (single isomer, unassigned) [Hy2A-28.2]

Result ::
1. > 7.00
2. > 7.00
3. > 7.00
4. 6.00 to 7.00
5. 6.00 to 7.00
6. > 7.00
7. 6.00 to 7.00

State recorded pIC50 for all listed compounds.
1. CCS(=O)(=O)c1ccc([C@H](CO)NC(=O)c2ccc3c(OC4CCN(CC(F)(F)F)CC4)nc(C)cc3c2)cc1
2. CCS(=O)(=O)c1ccc(CNC(=O)c2ccc3c(OC[C@H]4CC[C@H](C(F)(F)F)CC4)nccc3c2)cc1
3. CCS(=O)(=O)c1ccc(CNC(=O)c2ccc3c(c2)CCN(Cc2ccc(OC(F)F)nc2)[C@H]3C(C)C)cc1 (single isomer, unassigned)
4. CCS(=O)(=O)c1ccc(CNC(=O)c2ccc3c(OC[C@H]4CC[C@H](C(F)(F)F)CC4)nc(Cl)cc3c2)cc1
5. CCS(=O)(=O)c1ccc(CNC(=O)c2ccc3c(OC4CCC(C(F)(F)F)CC4)nccc3c2)cc1 (single isomer, unassigned) [Hy1A-3.2]

Result ::
< 6.00
6.00 to 7.00
> 7.00
> 7.00
< 6.00
